biological target: Cruzipain (Trypanosoma cruzi) (UniProt P25779); assay: Confirmation qHTS Assay for Inhibitors of Cruzain; settings: purified cruzain, Z-FR-AMC fluorescence, 0.01% Triton; note: potency is the fitted concentration of half-maximal effect; nearly all actives have a fitted effect of over 40% in size
Sequence (P25779 123-467 limits assumed): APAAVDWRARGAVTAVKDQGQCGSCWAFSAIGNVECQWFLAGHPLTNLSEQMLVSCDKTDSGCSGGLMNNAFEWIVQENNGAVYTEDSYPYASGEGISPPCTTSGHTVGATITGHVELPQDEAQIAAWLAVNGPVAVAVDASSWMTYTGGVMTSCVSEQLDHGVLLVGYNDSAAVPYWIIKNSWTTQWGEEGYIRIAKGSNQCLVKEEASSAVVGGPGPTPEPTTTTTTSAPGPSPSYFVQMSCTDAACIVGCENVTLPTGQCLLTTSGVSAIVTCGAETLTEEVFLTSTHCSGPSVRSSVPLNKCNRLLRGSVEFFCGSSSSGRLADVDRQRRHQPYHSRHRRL
Results filed as inconclusive are left out. Activity calls are given as the source filed them. Calls come from the whole dose curve; as a rule, active = well fitted inhibition curve with a large enough effect; inconclusive = small, poorly fitted or top-dose-only effect; inactive = no such curve, though single readings can be large or run the other way.
observable: Potency

Cc1ccc(S(=O)(=O)N[C@@H](CCCCN)C(=O)CCl)cc1; 282 nM (active)
NC(=O)CSc1nnc([C@@H](N)Cc2c[nH]c3ccccc23)o1; 15800 nM (active)
Cc1nc2c(=O)n(C)c(=O)nc-2n(C)n1; 2000 nM (active)
Cc1ccc(-c2nc3c(=O)n(C)c(=O)nc-3n(C)n2)cc1; 1410 nM (active)

Now look at this entry.
Write down measured Potency (Cruzipain (Trypanosoma cruzi) (UniProt P25779)) for this compound. N#CC(C#N)=NNc1cccc(Cl)c1
15800 nM (active)
